study-target: Calcium and integrin-binding protein 1 (Homo sapiens) (UniProt Q99828)
Sequence (Q99828 whole entry, looked up): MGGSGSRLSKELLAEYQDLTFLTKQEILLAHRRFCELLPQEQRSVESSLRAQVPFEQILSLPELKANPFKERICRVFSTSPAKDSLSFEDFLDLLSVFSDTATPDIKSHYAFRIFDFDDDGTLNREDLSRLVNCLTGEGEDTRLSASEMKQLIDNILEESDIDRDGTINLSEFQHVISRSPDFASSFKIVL
experiment: Primary qHTS for Identification of Calcium Integrin Binding Protein 1 (CIB1) Competitor (AID 1508620);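 note: GST tagged CIB1 binding a fluorescein labelled alphaIIb integrin peptide tracer; top concentration of the series differs between compounds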
reported-conditions: CIB1-GST / FITC-alphaIIb peptide fluorescence polarization; series mostly up to 114 µM
Results filed as inconclusive are left out. Calls of active or inactive are those of the source. Calls come from the whole dose curve; as a rule, active = well fitted inhibition curve with a large enough effect; inconclusive = small, poorly fitted or top-dose-only effect; inactive = flat fitted curve, though single readings scatter.
measured-attribute: outcome

Below, each entry is followed by its recorded outcome result.
COc1ccc(-c2nc3ccccc3c(=O)n2Cc2ccccc2)cc1COc1ccc(NC(C)=O)cc1; inactive
N#Cc1ccccc1CNc1nc2ncc(Br)cc2[nH]1; inactive
Oc1ccc(CNc2cc(C(F)(F)F)ccn2)c2cccnc12; inactive
CCOC(=O)c1ccc(-c2ccc3ncnc(NCc4ccc(C)o4)c3c2)o1; inactive

Sure, the documented outcome for Cc1ccc(NS(=O)(=O)c2cc3c(cc2-c2ccccc2)NC(=O)CO3)cc1C is inactive

Sure, the documented outcome for N/C(=N\c1nnc(-c2ccncc2)s1)Nc1ccc(Cl)c(Cl)c1 is inactive

Sure, the documented outcome for CCC(=O)C1CCCN(C(=O)CC(c2ccc3c(c2)OCO3)c2c(O)cc(OC)cc2OC)C1 (stereo unspecified) is inactive

Sure, the documented outcome for CN1CCN(Cc2cc(COCc3ccccc3)c3cccnc3c2O)CC1 is inactive

Sure, the documented outcome for N#Cc1nc(Nc2ccccc2)nc(NC2CCCC2)n1 is inactive

Sure, the documented outcome for CC(=O)Nc1sc2c(c1C(=O)O)CCNC2 is inactive

Sure, the documented outcome for N#Cc1ccc(-c2ccc(NC(=O)c3cccs3)cn2)cc1 is inactive

Data provenance: PubChem BioAssay (NCATS)
